All figures here come from patent US9907859B2.

- test summary: in vivo
- conditions used: female, New Zealand White, rabbit, iv, 1 mg/kg, T1/2
parameter: half-life (min)
Give bare numbers, in min.

[in] Please indicate half-life recorded for O=C(NN1C(=O)C2C3C=CC(C4CC34)C2C1=O)c1ccc(C(F)(F)F)cc1 (stereo not shown) [ST-246]
[out] 41.4

---

- test summary: in vivo
- conditions used: both, cynomolgus monkey, po, 30 mg/kg, AUCINF—obs
parameter: AUC(0-inf) (ng·h/mL)
Answers are plain numbers, in ng·h/mL.

[in] Please indicate AUC(0-inf) recorded for O=C(NN1C(=O)C2C3C=CC(C4CC34)C2C1=O)c1ccc(C(F)(F)F)cc1 (stereo not shown) [ST-246]
[out] 31900

---

- test summary: in vivo
- conditions used: male, mouse, po, 300 mg/kg, Cmax
parameter: Cmax (ng/mL)
Numbers only, in ng/mL.

[in] Please indicate Cmax recorded for O=C(NN1C(=O)C2C3C=CC(C4CC34)C2C1=O)c1ccc(C(F)(F)F)cc1 (stereo not shown) [ST-246]
[out] 48400

---

- test summary: in vivo
- conditions used: male, mouse, po, 500 mg/kg, Cmax
parameter: Cmax
Please provide the amount together with its unit, number first.

[in] Please indicate Cmax recorded for O=C(NN1C(=O)C2C3C=CC(C4CC34)C2C1=O)c1ccc(C(F)(F)F)cc1 (stereo not shown) [ST-246]
[out] 36600 ng/mL

---

- test summary: in vivo
- conditions used: female, New Zealand White, rabbit, iv, 60 mg/kg, Cmax
parameter: Cmax (µg/mL)
One number for each entry, in µg/mL.

[in] Please indicate Cmax recorded for O=C(NN1C(=O)C2C3C=CC(C4CC34)C2C1=O)c1ccc(C(F)(F)F)cc1 (stereo not shown)
[out] 88.2

---

- test summary: physchem
- conditions used: 60 °C, aqueous with cosolvent or surfactant or cyclodextrin, Solubility of ST-246, 60 ° C.
parameter: solubility (mg/mL)
One number for each entry, in mg/mL.

[in] Please indicate solubility recorded for O=C(NN1C(=O)C2C3C=CC(C4CC34)C2C1=O)c1ccc(C(F)(F)F)cc1 (stereo not shown)
[out] 16.2

---

- test summary: in vivo
- conditions used: both, cynomolgus monkey, iv, 1 mg/kg, AUCINF—obs
parameter: AUC(0-inf) (µg·h/mL)
Give bare numbers, in µg·h/mL.

[in] Please indicate AUC(0-inf) recorded for O=C(NN1C(=O)C2C3C=CC(C4CC34)C2C1=O)c1ccc(C(F)(F)F)cc1 (stereo not shown) [ST-246]
[out] 1.94

---

- test summary: in vivo
- conditions used: male, mouse, po, 1000 mg/kg, Cmax
parameter: Cmax (µg/mL)
Give bare numbers, in µg/mL.

[in] Please indicate Cmax recorded for O=C(NN1C(=O)C2C3C=CC(C4CC34)C2C1=O)c1ccc(C(F)(F)F)cc1 (stereo not shown)
[out] 61.1

---

- test summary: in vivo
- conditions used: female, BALB/c, mouse, po, 100 mg/kg
parameter: half-life (h)
Numbers only, in h.

[in] Please indicate half-life recorded for O=C(NN1C(=O)C2C3C=CC(C4CC34)C2C1=O)c1ccc(C(F)(F)F)cc1 (stereo not shown)
[out] 2.2

---

- test summary: in vivo
- conditions used: male, mouse, po, 300 mg/kg, AUC0-24
parameter: AUC(0-t) (µg·h/mL)
Give bare numbers, in µg·h/mL.

[in] Please indicate AUC(0-t) recorded for O=C(NN1C(=O)C2C3C=CC(C4CC34)C2C1=O)c1ccc(C(F)(F)F)cc1 (stereo not shown)
[out] 484
